Entries and their t/2diss
measured_on: T1, PSA(67-79)-G0F (human, also: Asn3 N-glycosylated with octasaccharide carrying alpha-1,6 core fucose (G0F))
T1 construct: Synthetic glycopeptide (3.9 kDa as SPR analyte), made on Sieber Amide resin; For the ELISAs a biotinylated form was used (glutamic acid derivative with a PEG3-biotin side chain at the N-terminus); also called PSA(67-79)-GOF; glycopeptide of Formula Ib
T1 peptide: IRN(G0F)KSVILLGRHS-NH2
protocol_text: SPR, Biacore 8k, 37 C, antibody captured by anti-rabbit Fc, peptide as analyte, Langmuir fit
Ends that are not written are not given here. * marks the point of attachment. G0F = octasaccharide N-glycan with alpha-1,6 core fucose (Formula Ib, linkages Formula Ic), CC(=O)N[C@@H]1[C@@H](O)[C@H](O[C@@H]2O[C@H](CO)[C@@H](O[C@@H]3O[C@H](CO[C@H]4O[C@H](CO)[C@@H](O)[C@H](O)[C@@H]4O[C@@H]4O[C@H](CO)[C@@H](O)[C@H](O)[C@H]4NC(C)=O)[C@@H](O)[C@H](O[C@H]4O[C@H](CO)[C@@H](O)[C@H](O)[C@@H]4O[C@@H]4O[C@H](CO)[C@@H](O)[C@H](O)[C@H]4NC(C)=O)[C@@H]3O)[C@H](O)[C@H]2NC(C)=O)[C@@H](CO[C@@H]2O[C@@H](C)[C@@H](O)[C@@H](O)[C@@H]2O)O[C@H]1*
Expressed in min, but write only the number.

Use these answered entries as a reference point.
binder | parameter_measured | test_value
2H9 (antibody, V domains shown, Rabbit monoclonal IgG (150 kDa); also called anti-1,6fucPSA antibody 2H9) VH: QSLEESGGDLVKPGASLTLTCTASGFSFSSGYDMCWVRQAPGKGPEWIACIYADGSGSTYYASWAKGRFTISMTSSTTVTLQMTRLTAADTATYFCAREGADDPNYGYAALRLWGPGTLVTVSS VL: DIVMTQTPASVEAAVGGTVTIKCQASQSISNYLAWYQQKPGQPPKLLIYKTSTLASGVPSRFKGSGSGTEFTLTISDLECADAATYYCQSFYGSVSSDYGGFAFGGGTEVVVK | t/2diss | 11
13C5 (antibody, V domains shown, Rabbit monoclonal IgG (150 kDa); also called anti-1,6fucPSA antibody 13C5) VH: QSLEESGGDLVKPGASLTLTCTASGFSFSSGYDMCWVRQAPGKGLEWIGCIYADGSGTTYYATWAKGRFTISNPSATTVTLQMTRLTAADTATYFCAREGADNPNYGYAALRLWGPGTLVTVSS VL: DIVMTQTPASVSGAVGGTITIKCQASQSISNYFSWYQQKPGQPPKLLIYKTSTLASGVPSRFKGSGSGTEFTLTISDLECADAATYYCQSFWGSGSSDYGGFAFGGGTEVVVK | t/2diss | 31

With those in mind, consider the next binder.
Query block: # query: t/2diss of entry 2E9 (antibody, V domains shown, Rabbit monoclonal IgG (150 kDa); also called anti-1,6fucPSA antibody 2E9) VH: QSLEESGGDLVKPGASLTLTCTASGFSFSAGYDMCWVRQAPGKGLEWIACIYADGSGSTYYANWAKGRFTISLASSTTVTLQMTGLTAADTATYFCAREGADGPDYGYAAFSLWGPGTLVTVSS VL: DVVMTQTPASVEAAVGGTVTIKCQASQSISNYFSWYQQKPGQPPKLLIYKASTLASGVPSRFKGSGSGTEFTLTISDLECADAATYYCQSFYGSVTSDYGGFAFGGGTEVVVK
Result block: 10
